meta.source: PubChem BioAssay (Tox21)

test.name: qHTS assay to identify small molecule HDAC inhibitors (AID 1259364);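 note: wild-type HCT-116 cells with endogenous class I/II HDAC activity; nearly all actives have a fitted effect of over 45% in size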
experimental.conditions: HCT-116 HDAC-Glo I/II luminescence, 2 h; series mostly up to 92.4 µM
Inconclusive results are not listed. Calls of active or inactive are those of the source. Calls come from the whole dose curve; as a rule, active = well fitted inhibition curve with a large enough effect in the repeat runs; inconclusive = weak or mixed curves; inactive = flat fitted curve, though single readings scatter.
Outcome codes: 1.0 = active, 0.0 = inactive

{"compound": "C=CC(=O)Nc1cc2c(Nc3ccc(F)c(Cl)c3)ncnc2cc1OCCCN1CCOCC1", "label": 0.0}
{"compound": "Clc1ccnc(Cl)n1", "label": 0.0}
{"compound": "CN(C)CCN1CCN(c2cccc(Cl)c2)C1=O", "label": 0.0}
{"compound": "CN(C)Cc1cc(C(C)(C)C)c(O)c(C(C)(C)C)c1", "label": 0.0}
{"compound": "OC12N=C(c3ccccc3)SC1Cc1cc(Cl)ccc12 (stereo not given)", "label": 1.0}
{"compound": "c1cnccn1", "label": 0.0}
{"compound": "CC(=O)Oc1cc2c(s1)CCN(C(C(=O)C1CC1)c1ccccc1F)C2 (stereo not given)", "label": 0.0}
{"compound": "C=CCn1c(=O)n(CC=C)c(=O)n(CC=C)c1=O", "label": 0.0}
{"compound": "CCc1cccc(CC)c1NC(=O)CN(CC(=O)O)CC(=O)O", "label": 0.0}
{"compound": "O=S(=O)(O)c1ccc(Nc2nc(Nc3ccc(/C=C/c4ccc(Nc5nc(Nc6ccc(S(=O)(=O)O)cc6)nc(N(CCO)CCO)n5)cc4S(=O)(=O)O)c(S(=O)(=O)O)c3)nc(N(CCO)CCO)n2)cc1", "label": 0.0}
{"compound": "COC(=O)c1ccccc1OC", "label": 0.0}
{"compound": "CCCCOC(=O)CO", "label": 0.0}
{"compound": "O=[N+]([O-])c1cccc(C(F)(F)F)c1", "label": 0.0}
{"compound": "Nc1ccc(Oc2ccc(Cl)cc2)cc1", "label": 0.0}
{"compound": "ClCCl", "label": 0.0}
{"compound": "NC(=O)c1cccc([N+](=O)[O-])c1", "label": 0.0}
{"compound": "S=C([S-])NCCNC(=S)[S-].S=C([S-])NCCNC(=S)[S-].[Mn+2].[Zn+2]", "label": 0.0}
{"compound": "C#CC1(O)CC[C@H]2[C@@H]3CCC4=CCCC[C@@H]4[C@H]3CC[C@@]21C (stereo not given in full)", "label": 0.0}
{"compound": "COC(=O)C1=C(C)NC(C)=C(C(=O)OCCN2CCN(C(c3ccccc3)c3ccccc3)CC2)C1c1cccc([N+](=O)[O-])c1 (stereo not given)", "label": 0.0}
{"compound": "Oc1ccccc1O", "label": 0.0}
{"compound": "Cc1c2ccccc2c(C)c2c1ccc1ccccc12", "label": 0.0}
{"compound": "Cc1ccc(C(C)C)cc2c(C)ccc1-2", "label": 0.0}
{"compound": "CCCC(=O)OCCc1ccccc1", "label": 0.0}
{"compound": "Cc1c(C)c2c(c(C)c1OC(=O)c1cccnc1)CC[C@@](C)(CCC[C@H](C)CCC[C@H](C)CCCC(C)C)O2", "label": 0.0}
{"compound": "CCCCC(CC)CN1CN(CC(CC)CCCC)CC(C)(N)C1 (stereo not given)", "label": 0.0}
